test: soluble on expression in E. coli; label from the status in PepcDB or PDB records
OUTCOME MEASURE: soluble on expression in E. coli

>>> test_value("MKHSLPDLPYDYGALEPHINAQIMQLHHSKVHAAYVNNLNVTEEKYQEALAKGDVTAQIALQPALKFNGGGHINHSIFWTNLSPNGGGEPKGELLEAIKRDFGSFDKFKEKLTAASVGVQGSGWGWLGFNKERGHLQIAACPNQDPLQGTTGLIPLLGIDVWEHAYYLQYKNVRPDYLKAIWNVINWENVTERYMACKK")
"soluble"
>>> test_value("MSKQQPTQFINPETPGYVGFANLPNQVHRKSVKKGFEFTLMVVGESGLGKSTLINSLFLTDLYPERVIPGAAEKIERTVQIEASTVEIEERGVKLRLTVVDTPGYGDAINCRDCFKTIISYIDEQFERYLHDESGLNRRHIIDNRVHCCFYFISPFGHGLKPLDVAFMKAIHNKVNIVPVIAKADTLTLKERERLKKRILDEIEEHNIKIYHLPDAESDEDEDFKEQTRLLKASIPFSVVGSNQLIEAKGKKVRGRLYPWGVVEVENPEHNDFLKLRTMLITHMQDLQEVTQDLHYENFRSERLKRGGRKVENEDMNKDQILLEKEAELRRMQEMIARMQAQMQMQMQGGDGDGGALGHHV")
"soluble"
>>> test_value("MSLNRFTKTSQGRSWNTGNGSPDAICFAVDKPGIVVVGFAVYGGGGIHEYELEVLVDDSEHAGDSTHSHRWTSLELVKGTYTTDDSPSDIAEIRLDKVVPLKENVKYAVRLRNYGSRTANGDGGMTTVQCPDGVTFTFSTCSLSSNGTNQTRGQIPQILYYRSEFDGDLQSQLLSKANEEDKNCSRALSVVSTVVRAAKDLLHRALAVDADEGHHHHHH")
"not soluble"
>>> test_value("MRVGIVGAGPAGVAAAVFLRRYNVHVTVFEKNRVGGLLRNAHLVENIPVLPPASGEEICKTLEKRLFESGAELIWEEVVKVENEKILTEREIHSFDYVIVASGTIPRRIPEFEVSEKVVYEFIDLPEFEKLAIYGAGDAAFDSALNALVRGKEVHLFNRGSRIRALPLLVERAKKYEKFYYHERCPILKVEEESKMVKLKTEHGVFTFDALLLSVGRLPNTSFVEPGERNFIVGDARGGFRQVSIAMGSAIETAMEILRREGTVSATLPLKEGLLNPNGEHQAG")
"soluble"
>>> test_value("MGSDKIHHHHHHMPKLIIDADDFGLSKAINHGIIESYKTGITTSTLLMPNLETAEHAIALAKNHPDLFIGQHTNFLLGKPCANPAEIPSLVDENGEFHRSKYYRANPELKFQYEDVRTETIAQMERFKALTGHYPEHIDCHSIGDETVDQAFFDIAREFGIHTTLKYSGDKKWSDQEGYLPITKLLESGALPYTNGGVSVENFLNDDFGLLKLAPNEIAEMHFDVGFLDQFVLDNSSYTLMRCRELATICDVRVRDWLLENGFELITFGDLQR")
"not soluble"

// moving on: another record for soluble on expression in E. coli
I'd like to know its soluble on expression in E. coli. The sequence in question is GAMAMPMIEYLERFSLKAKINNTTNLDYSRRFLEPFLRGINVVYTPPQSFQSAPRVYRVNGLSRAPASSETFEHDGKKVTIASYFHSRNYPLKFPQLHCLNVGSSIKSILLPIELCSIEEGQALNRKDGATQVANMIKYAATS
soluble
